Measured Mean % WT Binding, listed per entry for reference.
TARGET_OR_TEST_SYSTEM: human CD33 variant P48S (human, UniProt P20138 18-364)
Sequence (P20138 18-364 P48S limits assumed): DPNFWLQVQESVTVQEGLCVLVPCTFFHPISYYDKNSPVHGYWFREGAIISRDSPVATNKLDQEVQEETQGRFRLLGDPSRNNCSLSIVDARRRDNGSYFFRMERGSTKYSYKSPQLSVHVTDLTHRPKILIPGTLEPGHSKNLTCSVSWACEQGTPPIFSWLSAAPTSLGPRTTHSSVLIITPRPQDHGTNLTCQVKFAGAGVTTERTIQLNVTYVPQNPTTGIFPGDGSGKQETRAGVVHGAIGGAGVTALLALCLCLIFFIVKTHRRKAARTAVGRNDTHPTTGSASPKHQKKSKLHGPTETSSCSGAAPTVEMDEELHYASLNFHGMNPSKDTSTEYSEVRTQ
MEASUREMENT_PROTOCOL: flow cytometry, IgG on cells expressing the mutant
OUTCOME_MEASURE: Mean % WT Binding

INSERT INTO measurements (binder, observed) VALUES
  ('Refmab #4 (antibody, human IgG1, V domains shown, Tested in IgG format; human IgG1 Fc silent (PG-LALA)) VH: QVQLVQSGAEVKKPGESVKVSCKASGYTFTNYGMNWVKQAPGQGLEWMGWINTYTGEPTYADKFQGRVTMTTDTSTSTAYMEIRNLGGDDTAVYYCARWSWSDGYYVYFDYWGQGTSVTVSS VL: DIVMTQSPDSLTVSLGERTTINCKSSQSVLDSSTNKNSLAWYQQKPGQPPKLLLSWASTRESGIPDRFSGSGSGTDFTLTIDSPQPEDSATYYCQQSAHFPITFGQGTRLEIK', '0.5 % of WT'),
  ('Refmab #2 (antibody, human IgG1, V domains shown, Tested in IgG format; human IgG1 Fc silent (PG-LALA)) VH: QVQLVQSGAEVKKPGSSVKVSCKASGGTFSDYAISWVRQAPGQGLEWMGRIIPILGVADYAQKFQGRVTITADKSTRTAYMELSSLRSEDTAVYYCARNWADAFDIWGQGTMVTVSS VL: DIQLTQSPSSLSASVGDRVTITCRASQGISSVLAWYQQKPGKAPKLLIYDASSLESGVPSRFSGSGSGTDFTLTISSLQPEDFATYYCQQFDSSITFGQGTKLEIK', '92.1 % of WT'),
  ('Refmab #3 (antibody, human IgG1, V domains shown, Tested in IgG format; human IgG1 Fc silent (PG-LALA)) VH: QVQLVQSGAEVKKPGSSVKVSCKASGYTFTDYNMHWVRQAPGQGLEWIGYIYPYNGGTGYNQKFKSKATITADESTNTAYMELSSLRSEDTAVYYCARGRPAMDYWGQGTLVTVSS VL: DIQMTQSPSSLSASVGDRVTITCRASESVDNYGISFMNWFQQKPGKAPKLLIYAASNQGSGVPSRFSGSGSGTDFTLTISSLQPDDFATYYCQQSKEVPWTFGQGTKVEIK', '100 % of WT'),
  ('Refmab #1 (antibody, human IgG1, V domains shown, Tested in IgG format; human IgG1 (Absolute Antibody hP67.6, Cat. No. Ab00283-10.0); also called hP67.6) VH: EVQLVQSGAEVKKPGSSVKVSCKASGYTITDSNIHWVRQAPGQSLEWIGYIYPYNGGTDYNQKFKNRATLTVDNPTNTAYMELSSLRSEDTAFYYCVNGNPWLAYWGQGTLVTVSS VL: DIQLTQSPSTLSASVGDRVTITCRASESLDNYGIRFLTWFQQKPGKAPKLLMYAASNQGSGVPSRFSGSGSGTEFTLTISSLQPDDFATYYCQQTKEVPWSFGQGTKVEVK', '97.5 % of WT');

The values you see were collected from patent US20260242735A1.
